Listed next: entries and their corresponding cell viability.
Tested on: HepG2
Assay: cell viability relative to DMSO; higher = less toxic
Conditions: 72 h; 100 nM
Number only, in %; omit the unit.

Some molecules with recorded cell viability:
Nc1nc(NC2CC2)cc(-c2cccc(Cl)c2Cl)n1 [TH-588]    102
CCN(c1cc(C#CCN2CCOCC2)cc(C(=O)NCc2c(C)cc(C)[nH]c2=O)c1C)[C@H]1CC[C@H](N(C)CCOC)CC1    112
COc1cc2ncnc(Oc3cccc(NC(=O)Nc4cc(C(C)(C)C(F)(F)F)on4)c3)c2cc1OC    110
C[C@H]1[C@H](NC(=O)/C(=N\OC(C)(C)C(=O)O)c2csc(N)n2)C(=O)N1S(=O)(=O)O [aztreonam]    96.3
CCCN(CCC)[C@H]1CCc2ccc(O)cc2C1 [7-hydroxy-DPAT]    92.8
Cc1cc(Nc2nc(N[C@@H](C)c3ccc(F)cc3)c(C#N)cc2F)n[nH]1 [AZ960]    96.7
O=C(O)P(=O)(O)O [foscarnet]    99.9
C/C=C1\[C@H]2C=C(C)C[C@]1(N)c1ccc(=O)[nH]c1C2 [(-)-Huperzine A]    102
CN(C)C(=O)N[C@H]1CC[C@H](CCN2CCN(c3cccc(Cl)c3Cl)CC2)CC1 [cariprazine]    93.8
CCCCCCCCCCCCCC(=O)[O-].CCCCCCCCCCCCCC(=O)[O-].N[C@@H]1CCCC[C@H]1N.[Pt+2] [miriplatin]    106

*Q* # query: cell viability of entry COc1cc(/C=C2\CCCN([C@@H](C)c3ccc(F)cc3)C2=O)ccc1-n1cnc(C)c1 [E-2012]
*A* 100

*Q* Entry to check: Cc1cccc(/C=C/c2ccccc2)n1 [SIB-1893]
*A* 107

*Q* Entry to check: Cc1c(OCC(F)(F)F)ccnc1C[S+]([O-])c1nc2ccccc2[nH]1 (stereo not given) [lansoprazole]
*A* 96.1

*Q* Entry to check: CN(CCOc1ccc(NS(C)(=O)=O)cc1)CCc1ccc(NS(C)(=O)=O)cc1 [dofetilide]
*A* 89.5

*Q* Entry to check: C/C(=N\NC(=O)[C@@H]1C(=O)NC[C@H]1c1ccccc1)c1cccc(Br)c1
*A* 101

----------
System: Calu-3
Assay: cell viability relative to DMSO; higher = less toxic
Details: 72 h; 1 nM
parameter: cell viability (%)
Number only, in %; omit the unit.

Some compounds with recorded cell viability:
CCC(=O)N1CCOc2c(cc(-c3ccc(OC)c(OC)c3)cc2OC[C@H]2CCCN(C)C2)C1 [I-CBP-112]    96.6
CN1C(=O)c2c(nn(Cc3ccc(-c4cccc(F)n4)cc3)c2Nc2ccccc2)N2C1=N[C@@H]1CCC[C@@H]12 [ITI214]    105
Cc1csc2c(N[C@@H](C)CN3CCN(S(=O)(=O)c4ccc(Cl)c(Cl)c4)CC3)ncnc12 [LPA2-antagonist-1]    90.5
O=C(O)P(=O)(O)O [foscarnet]    110
C[C@H](NCc1ccc(OCc2cccc(F)c2)cc1)C(N)=O [safinamide]    95

*Q* # query: cell viability of entry CNCC(O)c1ccc(OC(=O)C(C)(C)C)c(OC(=O)C(C)(C)C)c1 (centres undefined) [dipivefrine]
*A* 97.9

*Q* Entry to check: O=C1C=CC[C@@H]2[C@H]3CCCN4CCC[C@@H](CN12)[C@@H]34 [sophocarpine]
*A* 98.8

*Q* Entry to check: CC1=C(C(=O)O)N2C(=O)[C@@H](NC(=O)[C@H](N)C3=CCC=CC3)[C@H]2SC1 [cephradine]
*A* 92.7

*Q* Entry to check: CCN(c1cc(C#CCN2CCOCC2)cc(C(=O)NCc2c(C)cc(C)[nH]c2=O)c1C)[C@H]1CC[C@H](N(C)CCOC)CC1
*A* 97.6
